Form field: Pre-emergence action against AVEFA in % (one value per entry).
- Tested on: Avena fatua (AVEFA)
- Protocol notes: Pre-emergence herbicidal action against AVEFA
- Assay type: in vivo
- Measurement conditions: 320 g/ha, visual scoring after about 3 weeks vs untreated controls
Quantity kind: Pre-emergence action against AVEFA in % (%)

                               entry_smiles  value_observed
0  C[C@@H](Oc1nn(-c2nc(F)ccc2F)c(-c2ccc(F)nc2)c1Cl)C(=O)O              90
1  COC(=O)CCOC(=O)COc1nn(-c2ccccn2)c(-c2ccc(F)nc2)c1Br              80
2  CCOC(=O)[C@@H](C)Oc1nn(-c2ccccn2)c(-c2ccc(F)nc2)c1Br             100
3  CCOC(=O)CSc1nn(-c2ccccn2)c(-c2cncc(F)c2)c1Cl              80
4  COC(=O)[C@@H](C)Oc1nn(-c2ncccc2F)c(-c2ccc(F)nc2)c1C(F)(F)F             100
5  O=C(O)CSc1nn(-c2ccccn2)c(-c2ccc(F)nc2)c1Br              80
6  CS(=O)(=O)NC(=O)COc1nn(-c2ncccc2F)c(-c2ccc(F)nc2)c1Br              90
7  COC(=O)COc1nn(-c2ncccc2Cl)c(-c2ccc(F)nc2)c1Br             100
